- ASSAY: in vitro
- CONDITION CONTEXT: human, hela cells, % viability
Here the recorded viability at 28.5 h, 10 µM is given for each entry.
Enter your answer as a number in %; do not include the unit.

INPUT: What does the record list as viability at 28.5 h, 10 µM for O=C(NC(Nc1ncccn1)C(Cl)(Cl)Cl)c1ccccc1 (centres unmarked) [CBK261408] ?
OUTPUT: 107

INPUT: Using the record for O=C(CSc1ncccn1)Nc1cccc(Cl)c1 [CBK058217] , report its viability at 28.5 h, 10 µM.
OUTPUT: 87.6

INPUT: # lookup: viability at 28.5 h, 10 µM of CC(=O)NCCCSCc1cn2cccc(C)c2n1 [CBK304809]
OUTPUT: 98.5

INPUT: Sample CCn1cc(NS(=O)(=O)c2ccc(N3CCCC3=O)cc2)cn1 [CBK305922] — what was its viability at 28.5 h, 10 µM?
OUTPUT: 85.3

INPUT: // returns reported viability at 28.5 h, 10 µM for input CNC1CCCCCC1(O)c1ccccc1 (centres unmarked) [CBK005073]
OUTPUT: 99.2

INPUT: Give the measured viability at 28.5 h, 10 µM of Cc1cccc(C(C)(C)C)c1NC(=O)NCCc1cccs1 [CBK044530] .
OUTPUT: 98.9

INPUT: viability at 28.5 h, 10 µM for O=C1N=C(NC2C3CC4CC(C3)CC2C4)OC12CCCC2 (centres unmarked) [CBK113576] ?
OUTPUT: 94.2

INPUT: Any idea what viability at 28.5 h, 10 µM was measured for Cc1c(NC(=O)CN(c2ccccc2)S(=O)(=O)N(C)C)cccc1[N+](=O)[O-] [CBK269012] ?
OUTPUT: 106

INPUT: Which viability at 28.5 h, 10 µM is reported for this compound? O=C(O)CCC(CCC(=O)O)([N+](=O)[O-])[N+](=O)[O-] [CBK260956]
OUTPUT: 93.9

INPUT: I'd like to know its viability at 28.5 h, 10 µM. The compound in question is COc1ccc(-c2cnc(N)c(NCC(C)(C)CO)n2)c(OC)c1OC [CBK063542]
OUTPUT: 103

INPUT: I have this compound here, CS(=O)(=O)Nc1nccnc1N1CCN(Cc2ccc(Cl)c(Cl)c2)CC1 [CBK084267] , and I need its recorded viability at 28.5 h, 10 µM.
OUTPUT: 98.7

INPUT: Find the recorded viability at 28.5 h, 10 µM belonging to Cc1ccn2cc(CNC(=O)N(C)CCc3scnc3C)nc2c1 [CBK307379] and report it.
OUTPUT: 87.5

INPUT: For the compound C=CCC1c2cccc(C(=O)O)c2C(=O)N1c1cccc(OC)c1 (centres unmarked) [CBK113160] , what viability at 28.5 h, 10 µM is on record?
OUTPUT: 96.7

INPUT: State the recorded viability at 28.5 h, 10 µM for this entry: CC1(C)C(=O)OC(C(=O)c2ccc(Br)cc2)C(C)(C)C1=O (centres unmarked) [CBK264600]
OUTPUT: 90.3

INPUT: Find the recorded viability at 28.5 h, 10 µM belonging to Cc1ccc(Cn2c(=N)n(CC(=O)c3cc(C(C)(C)C)c(O)c(C(C)(C)C)c3)c3ccccc32)cc1 [CBK262458B] and report it.
OUTPUT: 82.6

INPUT: Query: viability at 28.5 h, 10 µM; subject: CCOC(=O)C(NC(=O)c1cn[nH]c1)c1cccc(C)c1C (centres unmarked) [CBK304175]
OUTPUT: 92.8

INPUT: If you can, please state the reported viability at 28.5 h, 10 µM value of CCOC(=O)CC(=O)COc1noc2nc(C)cc(C)c12 [CBK269595] .
OUTPUT: 98.2

INPUT: What value of viability at 28.5 h, 10 µM has been recorded for this entry: COc1ccc(-c2c[nH]c([C@@H]3COCCN3Cc3cccc(C#N)c3)n2)cc1 [CBK289298]
OUTPUT: 96

INPUT: Request the reported viability at 28.5 h, 10 µM associated with Cc1ccc(NC(=O)c2cc(N3C(=O)c4ccc(C(=O)O)cc4C3=O)ccc2N2CCCCC2)cc1 [CBK265274]
OUTPUT: 99.9

INPUT: Entry FC(F)(F)c1ccc(Sc2ccccn2)nc1 [CBK093785] has what viability at 28.5 h, 10 µM?
OUTPUT: 100

The values you see were collected from paper PMC12040169.
